melting point listing for selected molecules.

Please review the entries below; each comes with its answer.
>>> print(df.to_string())
                                   molecule  measuredparameter         result
0  Cc1c(-c2ccccc2)c(N2CC[C@H](N(C)C)C2)c2oc(-c3ccccc3[N+](=O)[O-])nc2c1C#N      melting point  139 to 142 °C
1    CC(=O)Nc1ccc([N+](=O)[O-])c(C)c1C(=O)O      melting point  190 to 191 °C

The reported melting point of the molecule `CCC(=O)C1CN(C(c2ccccc2)c2ccccc2)C1` was 73 to 75 °C

The reported melting point of the molecule COc1ccc(CNc2c(C)c(C)c3c(c2C)C(c2ccccc2)C(C)(C)O3)cc1 (stereo unspecified) was 113 to 115 °C

The reported melting point of the molecule `CCOC(=O)c1nn(-c2cccc(Cl)c2)c(=O)c2c1c1ccc(Cl)cc1n2C` was 236 to 238 °C

The reported melting point of the molecule `CC(=O)c1ccc(S(=O)(=O)Nc2ccc(F)cn2)cc1` was 151 to 152 °C

The reported melting point of the molecule `NS(=O)(=O)c1ccc(S(=O)(=O)c2ccc(OC(=O)c3cccnc3)cc2)s1` was 200 to 201 °C

The reported melting point of the molecule CN(C(CCn1c(=O)cc(C(F)(F)F)[nH]c1=O)C(=O)NO)S(=O)(=O)c1ccc(Oc2ccc(Cl)cc2)cc1 (stereo unspecified) was 173 to 174 °C

The reported melting point of the molecule `COc1ccc(C(=O)NNC(=O)C(F)(F)F)cc1` was 147 to 148 °C

The reported melting point of the molecule `c1cc(-c2nccs2)cc(-n2cnc3cc(-c4ccoc4)ccc32)c1` was 102 to 105 °C

The reported melting point of the molecule `CCC(CC)n1nnc2c(Oc3c(C)cc(C)cc3C)nc(C)nc21` was 92 °C

The reported melting point of the molecule `COCCN(CCC12CC3CC(CC(C3)C1)C2)C(=O)NCCCc1ccncc1` was 102 to 104 °C

The reported melting point of the molecule `Cc1nc(N2C[C@@H](C)N(Cc3cc(F)cc(F)c3)C2=O)sc1C(N)=O` was 212 to 213 °C

The reported melting point of the molecule COc1cc(C(C)N(O)C(N)=O)ccc1OCCc1ccccc1 (stereo unspecified) was 112 to 115 °C

The reported melting point of the molecule `COc1cc(COc2nn(-c3ccccc3)cc2/C=C\c2cscn2)ccc1OCc1nc(-c2ccco2)oc1C` was 137 to 138 °C
